system: N140; experiment: qHTS profiling for inhibitors of Plasmodium falciparum proliferation (AID 504749); also: nearly all actives have a fitted effect of over 60% in size; details: P. falciparum in erythrocytes, SYBR Green DNA, 72 h; series mostly up to 28.7 µM
Records with an inconclusive call do not appear. Calls of active or inactive are those of the source. Calls follow the shape of the dose curve; as a rule, active = well fitted inhibition curve with a large enough effect; inconclusive = small, poorly fitted or top-dose-only effect; inactive = flat fitted curve, though single readings scatter.
Choose one outcome from this list and give only that: 1.0 (active), 0.0 (inactive)

Previously resolved entries follow.
IN: Assay outcome for `NCCC(O)(P(=O)(O)O)P(=O)(O)O` : what was it?
OUT: 0.0

IN: Check the results log: what was the call for `C[C@]12CCC(=O)C=C1CC[C@H]1[C@@H]3CC[C@](O)(C(=O)CO)[C@@]3(C)C[C@H](O)[C@@]12F` ?
OUT: 0.0

IN: Recorded test outcome, item C[C@H]1[C@H](NC(=O)/C(=N/OC(C)(C)C(=O)O)c2csc(N)n2)C(=O)N1S(=O)(=O)O (stereo in doubt)
OUT: 0.0

IN: Lab log entry: `CC(=O)N/N=C/c1ccc([N+](=O)[O-])o1` — outcome as called in the assay?
OUT: 1.0

IN: How did this test come out for CCCCCCCCCCCCCCCCCC(=O)OCC(O)CO (configuration not stated) ?
OUT: 0.0

IN: Hi, do you know how CCN(CC)CCOC(=O)C(c1ccccc1)C1CCCCC1 (configuration not stated) came out in this test?
OUT: 0.0

More entries:
IN: Hi, sorry to bother you, what did the test record for `CC(C)NC[C@@H](O)COc1cccc2ccccc12` ?
OUT: 1.0

IN: What did this assay record as the result for Cc1c(F)c(N2CCNC(C)C2)cc2c1c(=O)c(C(=O)O)cn2C1CC1 (configuration not stated) ?
OUT: 0.0

---

test: qHTS of pediatric cancer cell lines to identify multiple opportunities for drug repurposing: Confirmatory screen for SK-N-MC cells (AID 1347111); conditions: SK-N-MC cell viability; series mostly up to 45.9 µM;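 also: cells exposed to compound for 48 h before the readout; nearly all actives have a fitted effect of over 70% in size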
Records with an inconclusive call do not appear. The source made the active and inactive calls. The call rests on the fitted dose curve; in most records, active means well fitted cell-killing curve with a large enough effect; inconclusive means small, poorly fitted or top-dose-only effect; inactive means no such curve, though single readings can be large or run the other way.
Give one outcome, nothing more. List: active, inactive

Recorded results for 3 compounds are shown here.
IN: Can you look up the reported call for `C=C1C[C@H]2[C@@H]3C=C(C)C4=CC(=O)CC[C@]4(C)[C@H]3CC[C@]2(C)[C@@]1(OC(C)=O)C(C)=O` for me?
OUT: active

IN: Test call, this compound: `COc1cccc2c1C(=O)c1c(O)c3c(c(O)c1C2=O)C[C@@](O)(C(=O)CO)C[C@@H]3O[C@H]1C[C@H](N)[C@H](O)[C@H](C)O1`
OUT: active

IN: Which outcome was assigned to C[n+]1c2cc(N)ccc2cc2ccc(N)cc21 (tested in a mixture with another compound) in this test?
OUT: active

New cases:
IN: So what was the verdict on `CCCC(=O)O[C@]1(C(=O)CO)CC[C@H]2[C@@H]3CCC4=CC(=O)CC[C@]4(C)[C@H]3[C@@H](O)C[C@@]21C` in this test?
OUT: inactive

---

Test system: CP305
Assay: qHTS profiling for inhibitors of Plasmodium falciparum proliferation (AID 504749); also: nearly all actives have a fitted effect of over 60% in size
Settings: P. falciparum in erythrocytes, SYBR Green DNA, 72 h; series mostly up to 28.7 µM
Protocol: NIH National Institute of Allergy and Infectious Diseases [NIAID] NIH Chemical Genomics Center [NCGC] […] Because mature erythrocytes lack DNA, only Plasmodium-derived DNA is detected. NCGC Assay Protocol Summary: The SYBR Green viability assay was adapted from a method described previously (Plouffe et al., 2008). […] The following morning, fluorescence intensity at 485(14) nm excitation and 535(25) nm emission wavelengths was measured on an EnVision (Perkin Elmer) plate reader. […]
Records with an inconclusive call do not appear. Active and inactive are the calls of the source. Calls follow the shape of the dose curve; as a rule, active = well fitted inhibition curve with a large enough effect; inconclusive = small, poorly fitted or top-dose-only effect; inactive = flat fitted curve, though single readings scatter.
Assay metric: outcome

IN: I am curious: what outcome value has been reported for `N[C@H](Cc1c[nH]c2ccccc12)C(=O)O` ?
OUT: inactive

IN: Return reported outcome; argument: `Nc1ccc(/C=C/c2ccc(N)cc2S(=O)(=O)O)c(S(=O)(=O)O)c1`
OUT: inactive

IN: What value of outcome has been reported for the following compound? `CCOc1ccc(Cc2nccc3cc(OCC)c(OCC)cc23)cc1OCC`
OUT: inactive

IN: outcome for CCCCN1CCCC1C(=O)Nc1c(C)cc(C)cc1C (stereo unspecified) ?
OUT: inactive

IN: I am curious: what outcome value has been reported for `C[C@@H]1C(=O)NC2=Nc3cccc(Cl)c3CN21` ?
OUT: inactive

Note: attention shifts to another entry.
IN: Sample `CCCn1c(=O)[nH]c(=O)c2[nH]cnc21` — what was its outcome?
OUT: inactive
